System: Sheep Red Cells
protocol-text: lysis of sheep red blood cells (lysis assay or SRC plate assay)
Format: cell-based
protocol-conditions: Table 2, no incubation footnote
Where no end group is shown, it is not given here.
// reported Lethal concentration, Sheep Red Cells per item

substance	experimental-system	Lethal concentration, Sheep Red Cells
KWKLFKKLKVLTTGL-NH2 [CA(1-7)M(6-13)]	Sheep Red Cells	> 500 µM
KWKLFKKGIGAVLKV-NH2 [CA(1-7)M(1-8)]	Sheep Red Cells	> 200 µM
KWKLFKKGAVLKVLT-NH2 [CA(1-7)M(3-10)]	Sheep Red Cells	> 600 µM
KWKLFKKAVLKVLTT-NH2 [CA(1-7)M(4-11)]	Sheep Red Cells	> 600 µM
KWKLFKKVLKVLTTG-NH2 [CA(1-7)M(5-12)]	Sheep Red Cells	> 500 µM
KWKLFKKIGIGAVLKVLT-NH2 [CA(1-8)M(1-10)]	Sheep Red Cells	> 600 µM
KWKLFKKIGAVLKVL-NH2 [CA(1-7)M(2-9)]	Sheep Red Cells	> 600 µM
